Test system: Mus musculus
Experiment: Hypoglycemic effect of compound 1 hr after subcutaneous administration of a 20 mg/kg dose in alloxanized mice and expressed as hypoglycemic activity ratio (hAR) taking metformin as standard
Assay type: functional
property: HAR
Answers are plain numbers.

For every record below, what is its HAR?
1. CC(=O)Nc1ccc(S(=O)(=O)N2[C@@H]3CO[C@@H](C(C)C)OC[C@@H]32)cc1 (stereo partly drawn)
2. O=S(=O)(c1ccc(F)cc1)N1[C@@H]2COCOC[C@@H]21 (stereo partly drawn)
3. CC(=O)Nc1ccc(S(=O)(=O)N2[C@@H]3COCOC[C@@H]32)cc1 (stereo partly drawn)

1: 1.07; 2: 1.71; 3: 4.5

Origin of values: ChEMBL document CHEMBL1128586
